System: UniProtKB P35372
Sequence (P35372 whole entry): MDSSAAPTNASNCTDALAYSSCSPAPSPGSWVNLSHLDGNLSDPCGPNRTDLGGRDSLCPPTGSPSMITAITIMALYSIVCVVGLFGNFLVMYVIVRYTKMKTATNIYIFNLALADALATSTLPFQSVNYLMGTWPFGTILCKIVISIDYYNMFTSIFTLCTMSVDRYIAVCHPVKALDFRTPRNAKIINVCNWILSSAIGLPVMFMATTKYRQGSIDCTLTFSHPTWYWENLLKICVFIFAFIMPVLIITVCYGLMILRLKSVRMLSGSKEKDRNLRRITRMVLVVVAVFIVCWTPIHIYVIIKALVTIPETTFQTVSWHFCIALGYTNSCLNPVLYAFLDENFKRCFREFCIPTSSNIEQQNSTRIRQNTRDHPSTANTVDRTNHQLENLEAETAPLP
Procedure details: Agonist activity at Mu-type opioid receptor
Listed compounds paired with reported pIC50
Scale: pIC50 equals -log10([C]), with [C] in mol/L.

C[C@@H](NC(=O)[C@@H](N)Cc1ccc(O)cc1)C(=O)NC1Cc2ccccc2CN(CC(=O)N[C@@H](Cc2ccc(O)cc2)C(=O)N2CCC[C@H]2C(=O)N[C@@H](CO)C(N)=O)C1=O (some centres not stated) :: 7.96

Query for UniProtKB P35372: what pIC50 does the record show for C[C@H](C(=O)NC1Cc2ccccc2CN(CC(N)=O)C1=O)N1Cc2cc(O)ccc2CC(N)C1=O (some centres not stated) ?
7.68

----------
System: Mu-type opioid receptor (Rattus norvegicus, UniProt P33535)
Sequence (P33535 whole entry): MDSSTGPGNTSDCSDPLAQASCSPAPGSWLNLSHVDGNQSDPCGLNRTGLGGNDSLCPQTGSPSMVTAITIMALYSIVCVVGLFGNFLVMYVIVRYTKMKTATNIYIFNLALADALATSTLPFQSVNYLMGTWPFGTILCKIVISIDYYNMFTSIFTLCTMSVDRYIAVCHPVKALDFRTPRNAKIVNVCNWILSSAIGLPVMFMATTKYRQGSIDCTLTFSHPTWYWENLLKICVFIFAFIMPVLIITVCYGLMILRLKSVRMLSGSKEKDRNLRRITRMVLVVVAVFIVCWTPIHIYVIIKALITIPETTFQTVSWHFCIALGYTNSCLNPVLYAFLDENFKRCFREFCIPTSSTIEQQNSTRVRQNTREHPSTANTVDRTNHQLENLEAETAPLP
Procedure details: Agonist activity at rat brain mu-opioid receptor assessed as [35S]GTPgammaS binding by liquid scintillation counting
Type: functional
Assay endpoint: pEC50
Scale: pEC50 equals -log10([C]), with [C] in mol/L.

Cc1cc(O)cc(C)c1C[C@H](N)C(=O)N[C@H](C)C(=O)N[C@]1(C)Cc2ccccc2CN(CC(N)=O)C1=O :: 6.54
Cc1cc(O)cc(C)c1C[C@H](N)C(=O)N[C@H](C)C(=O)N[C@@H]1C(=O)N(CC(N)=O)Cc2ccccc2[C@@H]1C :: 7.44
Cc1cc(O)cc(C)c1C[C@H](N)C(=O)N[C@H](C)C(=O)N[C@H]1Cc2ccccc2CN(CC(N)=O)C1=O :: 7.74
Cc1cc(O)cc(C)c1C[C@H](N)C(=O)N[C@H](C)C(=O)N[C@H]1C(=O)N(CC(N)=O)Cc2ccccc2[C@H]1C :: 6.74
Cc1cc(O)cc(C)c1C[C@H](N)C(=O)N[C@H](C)C(=O)N[C@H]1C(=O)N(CC(N)=O)Cc2ccccc2[C@@H]1C :: 8.03

Return reported pEC50; argument: Cc1cc(O)cc(C)c1C[C@H](N)C(=O)N[C@H](C)C(=O)N[C@@H]1C(=O)N(CC(N)=O)Cc2ccccc2[C@H]1C
6.16

Return reported pEC50; argument: Cc1cc(O)cc(C)c1C[C@H](N)C(=O)N[C@H](C)C(=O)N[C@@]1(C)Cc2ccccc2CN(CC(N)=O)C1=O
6.03

Return reported pEC50; argument: Cc1cc(O)cc(C)c1C[C@H](N)C(=O)N[C@H](C)C(=O)N[C@@H]1Cc2ccccc2CN(CC(N)=O)C1=O
7.19

----------
System: Delta-type opioid receptor (Homo sapiens, UniProt P41143)
Sequence (P41143 whole entry): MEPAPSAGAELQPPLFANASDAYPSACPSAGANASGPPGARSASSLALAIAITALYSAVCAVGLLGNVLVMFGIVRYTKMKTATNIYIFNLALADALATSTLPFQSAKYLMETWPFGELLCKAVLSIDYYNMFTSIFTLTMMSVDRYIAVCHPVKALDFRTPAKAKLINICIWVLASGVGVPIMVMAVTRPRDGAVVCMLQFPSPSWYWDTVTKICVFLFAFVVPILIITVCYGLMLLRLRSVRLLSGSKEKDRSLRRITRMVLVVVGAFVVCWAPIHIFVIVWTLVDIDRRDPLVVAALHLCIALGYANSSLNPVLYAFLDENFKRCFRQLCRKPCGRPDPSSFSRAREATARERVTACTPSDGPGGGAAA
Procedure details: Agonist activity at delta-type opioid receptor
Format: functional
Assay endpoint: IC50

Return reported IC50; argument: C[C@@H](NC(=O)[C@@H](N)Cc1ccc(O)cc1)C(=O)NC1Cc2ccccc2CN(CC(=O)N[C@@H](Cc2ccc(O)cc2)C(=O)N2CCC[C@H]2C(=O)N[C@@H](CO)C(N)=O)C1=O (stereo partly specified)
0.0174 µM

----------
Listed compounds paired with reported log10 Ki
System: Delta-type opioid receptor (Rattus norvegicus)
Sequence (P33533 whole entry): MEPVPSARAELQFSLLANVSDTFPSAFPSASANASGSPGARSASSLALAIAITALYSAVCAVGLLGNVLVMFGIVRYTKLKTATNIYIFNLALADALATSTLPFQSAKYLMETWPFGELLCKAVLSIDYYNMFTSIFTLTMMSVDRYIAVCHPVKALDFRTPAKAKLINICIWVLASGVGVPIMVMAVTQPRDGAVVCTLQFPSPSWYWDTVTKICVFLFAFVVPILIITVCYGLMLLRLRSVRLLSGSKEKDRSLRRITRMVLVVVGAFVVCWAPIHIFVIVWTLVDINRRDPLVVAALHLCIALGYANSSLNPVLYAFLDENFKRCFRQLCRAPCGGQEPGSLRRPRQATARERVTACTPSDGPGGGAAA
Procedure details: Displacement of [3H]Ile-deltorphin-2 from rat brain delta-type opioid receptor by liquid scintillation counting
Scale: decimal log of Ki, Ki in µM.

Reference set (4 entries):
Cc1cc(O)cc(C)c1C[C@H](N)C(=O)N[C@H](C)C(=O)N[C@]1(C)Cc2ccccc2CN(CC(N)=O)C1=O :: -1.20
Cc1cc(O)cc(C)c1C[C@H](N)C(=O)N[C@H](C)C(=O)N[C@@H]1Cc2ccccc2CN(CC(N)=O)C1=O :: -0.47
Cc1cc(O)cc(C)c1C[C@H](N)C(=O)N[C@H](C)C(=O)N[C@@H]1C(=O)N(CC(N)=O)Cc2ccccc2[C@@H]1C :: -2.77
Cc1cc(O)cc(C)c1C[C@H](N)C(=O)N[C@H](C)C(=O)N[C@H]1C(=O)N(CC(N)=O)Cc2ccccc2[C@@H]1C :: -1.62

Return reported log10 Ki; argument: Cc1cc(O)cc(C)c1C[C@H](N)C(=O)N[C@H](C)C(=O)N[C@@]1(C)Cc2ccccc2CN(CC(N)=O)C1=O
-0.07

Return reported log10 Ki; argument: Cc1cc(O)cc(C)c1C[C@H](N)C(=O)N[C@H](C)C(=O)N[C@H]1C(=O)N(CC(N)=O)Cc2ccccc2[C@H]1C
-0.31

Return reported log10 Ki; argument: Cc1cc(O)cc(C)c1C[C@H](N)C(=O)N[C@H](C)C(=O)N[C@H]1Cc2ccccc2CN(CC(N)=O)C1=O
-2.62

Return reported log10 Ki; argument: Cc1cc(O)cc(C)c1C[C@H](N)C(=O)N[C@H](C)C(=O)N[C@@H]1C(=O)N(CC(N)=O)Cc2ccccc2[C@H]1C
-0.14

----------
System: Mu-type opioid receptor (Rattus norvegicus)
pKi: −log10 of the molar value.
Is pKi at least 10? Then rule met. If not, rule not met.

A selection of reference data follows.
Cc1cc(O)cc(C)c1C[C@H](N)C(=O)N[C@H](C)C(=O)N[C@@H]1Cc2ccccc2CN(CC(N)=O)C1=O :: rule not met
Cc1cc(O)cc(C)c1C[C@H](N)C(=O)N[C@H](C)C(=O)N[C@H]1C(=O)N(CC(N)=O)Cc2ccccc2[C@@H]1C :: rule met
Cc1cc(O)cc(C)c1C[C@H](N)C(=O)N[C@H](C)C(=O)N[C@@H]1C(=O)N(CC(N)=O)Cc2ccccc2[C@H]1C :: rule not met
Cc1cc(O)cc(C)c1C[C@H](N)C(=O)N[C@H](C)C(=O)N[C@@]1(C)Cc2ccccc2CN(CC(N)=O)C1=O :: rule not met
Cc1cc(O)cc(C)c1C[C@H](N)C(=O)N[C@H](C)C(=O)N[C@H]1C(=O)N(CC(N)=O)Cc2ccccc2[C@H]1C :: rule not met

Kindly determine if pKi recorded for Cc1cc(O)cc(C)c1C[C@H](N)C(=O)N[C@H](C)C(=O)N[C@H]1Cc2ccccc2CN(CC(N)=O)C1=O is above or exactly 10.
rule met

Kindly determine if pKi recorded for Cc1cc(O)cc(C)c1C[C@H](N)C(=O)N[C@H](C)C(=O)N[C@@H]1C(=O)N(CC(N)=O)Cc2ccccc2[C@@H]1C is above or exactly 10.
rule met

Kindly determine if pKi recorded for Cc1cc(O)cc(C)c1C[C@H](N)C(=O)N[C@H](C)C(=O)N[C@]1(C)Cc2ccccc2CN(CC(N)=O)C1=O is above or exactly 10.
rule not met

----------
System: Mu-type opioid receptor (Cavia porcellus)
Sequence (P97266 whole entry): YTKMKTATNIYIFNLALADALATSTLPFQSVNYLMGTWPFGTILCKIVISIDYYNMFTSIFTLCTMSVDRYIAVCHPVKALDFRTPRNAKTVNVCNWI
Procedure details: Agonist activity at guinea pig ileum Mu-type opioid receptor
Assay endpoint: IC50 (nM)
Supply the numeric figure in nM, leaving out any unit text.

Return reported IC50; argument: C[C@H](C(=O)NC1Cc2ccccc2CN(CC(N)=O)C1=O)N1Cc2cc(O)ccc2CC(N)C1=O (stereo partly specified)
3.64

----------
Listed compounds paired with reported Ratio Ki
Species on record: Rattus norvegicus
Procedure details: Selectivity ratio of Ki of rat brain delta-type opioid receptor to Ki of rat brain Mu-type opioid receptor

Reference set (2 entries):
Cc1cc(O)cc(C)c1C[C@H](N)C(=O)N[C@H](C)C(=O)N[C@H]1C(=O)N(CC(N)=O)Cc2ccccc2[C@H]1C :: 1220
Cc1cc(O)cc(C)c1C[C@H](N)C(=O)N[C@H](C)C(=O)N[C@]1(C)Cc2ccccc2CN(CC(N)=O)C1=O :: 210

Return reported Ratio Ki; argument: Cc1cc(O)cc(C)c1C[C@H](N)C(=O)N[C@H](C)C(=O)N[C@H]1C(=O)N(CC(N)=O)Cc2ccccc2[C@@H]1C
960

Return reported Ratio Ki; argument: Cc1cc(O)cc(C)c1C[C@H](N)C(=O)N[C@H](C)C(=O)N[C@@H]1Cc2ccccc2CN(CC(N)=O)C1=O
1020

Return reported Ratio Ki; argument: Cc1cc(O)cc(C)c1C[C@H](N)C(=O)N[C@H](C)C(=O)N[C@H]1Cc2ccccc2CN(CC(N)=O)C1=O
51

Return reported Ratio Ki; argument: Cc1cc(O)cc(C)c1C[C@H](N)C(=O)N[C@H](C)C(=O)N[C@@H]1C(=O)N(CC(N)=O)Cc2ccccc2[C@@H]1C
68

Return reported Ratio Ki; argument: Cc1cc(O)cc(C)c1C[C@H](N)C(=O)N[C@H](C)C(=O)N[C@@H]1C(=O)N(CC(N)=O)Cc2ccccc2[C@H]1C
51

Return reported Ratio Ki; argument: Cc1cc(O)cc(C)c1C[C@H](N)C(=O)N[C@H](C)C(=O)N[C@@]1(C)Cc2ccccc2CN(CC(N)=O)C1=O
187

----------
Listed compounds paired with reported Emax
System: Mu-type opioid receptor (Rattus norvegicus)
Procedure details: Agonist activity at rat brain Mu-type opioid receptor assessed as [35S]GTPgammaS binding by liquid scintillation counting relative to control
Assay type: functional
Supply the numeric figure in %, leaving out any unit text.

Return reported Emax; argument: Cc1cc(O)cc(C)c1C[C@H](N)C(=O)N[C@H](C)C(=O)N[C@@H]1C(=O)N(CC(N)=O)Cc2ccccc2[C@@H]1C
191

Return reported Emax; argument: Cc1cc(O)cc(C)c1C[C@H](N)C(=O)N[C@H](C)C(=O)N[C@H]1Cc2ccccc2CN(CC(N)=O)C1=O
161

Return reported Emax; argument: Cc1cc(O)cc(C)c1C[C@H](N)C(=O)N[C@H](C)C(=O)N[C@H]1C(=O)N(CC(N)=O)Cc2ccccc2[C@@H]1C
149

Return reported Emax; argument: Cc1cc(O)cc(C)c1C[C@H](N)C(=O)N[C@H](C)C(=O)N[C@@H]1C(=O)N(CC(N)=O)Cc2ccccc2[C@H]1C
130

Return reported Emax; argument: Cc1cc(O)cc(C)c1C[C@H](N)C(=O)N[C@H](C)C(=O)N[C@@H]1Cc2ccccc2CN(CC(N)=O)C1=O
178

Return reported Emax; argument: Cc1cc(O)cc(C)c1C[C@H](N)C(=O)N[C@H](C)C(=O)N[C@]1(C)Cc2ccccc2CN(CC(N)=O)C1=O
154

Return reported Emax; argument: Cc1cc(O)cc(C)c1C[C@H](N)C(=O)N[C@H](C)C(=O)N[C@H]1C(=O)N(CC(N)=O)Cc2ccccc2[C@H]1C
167

Return reported Emax; argument: Cc1cc(O)cc(C)c1C[C@H](N)C(=O)N[C@H](C)C(=O)N[C@@]1(C)Cc2ccccc2CN(CC(N)=O)C1=O
159
